Measured Selectivity B/D, listed per entry for reference.
Biological target: PDE4D7-S129D (PDE4D*) (Homo sapiens, UniProt Q08499, S190D)
Sequence (Q08499 1-748 isoform Q08499-11 S129D, species assumed): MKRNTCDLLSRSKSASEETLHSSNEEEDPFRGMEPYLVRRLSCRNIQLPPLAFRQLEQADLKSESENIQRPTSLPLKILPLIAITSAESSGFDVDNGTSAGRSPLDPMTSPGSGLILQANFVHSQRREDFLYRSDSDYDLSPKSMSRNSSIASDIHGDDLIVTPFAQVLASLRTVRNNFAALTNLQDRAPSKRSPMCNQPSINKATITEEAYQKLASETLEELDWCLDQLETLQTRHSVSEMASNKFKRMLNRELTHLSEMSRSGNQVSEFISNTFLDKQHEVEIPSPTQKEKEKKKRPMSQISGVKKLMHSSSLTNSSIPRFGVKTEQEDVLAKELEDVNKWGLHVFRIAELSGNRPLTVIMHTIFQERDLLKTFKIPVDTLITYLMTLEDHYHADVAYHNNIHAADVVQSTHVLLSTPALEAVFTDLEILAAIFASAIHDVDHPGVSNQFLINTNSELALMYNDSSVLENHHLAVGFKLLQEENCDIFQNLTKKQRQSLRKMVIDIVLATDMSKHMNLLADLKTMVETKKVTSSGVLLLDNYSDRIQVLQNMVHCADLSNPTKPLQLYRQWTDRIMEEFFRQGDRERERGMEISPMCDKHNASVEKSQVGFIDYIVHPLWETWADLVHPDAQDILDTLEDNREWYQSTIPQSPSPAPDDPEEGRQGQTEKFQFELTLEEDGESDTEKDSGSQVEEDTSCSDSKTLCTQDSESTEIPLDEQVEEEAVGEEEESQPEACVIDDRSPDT
Assay: PDE4 enzyme inhibition assay
Format: biochemical
Conditions: ratio of IC50 for PDE4B* over that for PDE4D*

Recorded Selectivity B/D, per entry:
                                   molecule  value_observed
0  COc1cccc(-c2nc(Cn3ncnn3)ccc2OC(F)F)c1 [Compound 47]            >575
1  COc1cccc(-c2nc(Cc3ccc(CCCO)cc3)ccc2OC(F)F)c1 [Compound 56]            >420
2  COc1ccc(Cn2cnc(C(F)(F)F)n2)nc1-c1cccc(OC(F)F)c1 [Compound 31]             >13
3  COc1ccc(Cc2ccc(CCCO)cc2)nc1-c1cccc(OC(F)F)c1 [Compound 54]            >621
4  COc1cccc(-c2nc(Cn3cncn3)ccc2OC(F)F)c1 [Compound 45]            >238
5  Fc1ccc(Cc2cn[nH]c2)nc1-c1cccc(Cl)c1 [Compound 10]             >13
6  COc1ccc(Oc2cn[nH]c2)nc1-c1cccc(OC(F)F)c1 [Compound 18]              >6
7  COc1cccc(-c2nc(Nc3cn[nH]c3)ccc2OC(F)F)c1 [Compound 20]             >15

Request: Field request: Selectivity B/D | item: COc1cccc(-c2nc(COc3cn[nH]c3)ccc2OC(F)F)c1 [Compound 40]
Result: >27

Request: What about COc1cccc(-c2nc(Cn3cnc(C(F)(F)F)n3)ccc2OC(F)F)c1 [Compound 44] ?
Result: >13

Request: Next molecule: COc1ccc(Nc2cn[nH]c2)nc1-c1cccc(C(F)(F)F)c1 [Compound 13]
Result: >2

Request: // repeat for FC(F)Oc1cccc(-c2nc(Cc3cn[nH]c3)ccc2OCc2ccccc2)c1 [Compound 57] and report
Result: >61

Request: For FC(F)Oc1cccc(-c2nc(Cn3ccnc3)ccc2OCc2ccccc2)c1 [Compound 59] then?
Result: >57

Request: Also need COc1ccc(Cn2cncn2)nc1-c1cccc(OC(F)F)c1 [Compound 32] , thanks.
Result: >649
